- Tested on: SK-OV-3
- Test: NCI tumour cell line growth inhibition, 48 h
The source made the active and inactive calls. Rule as the data show it: active = GI50 up to about 1.1 µM and inactive = higher.
Classes used: class 1 (active), class 0 (inactive)

[[record]]
molecule = "Clc1ccc(CNc2nc(Cl)c3nc[nH]c3n2)cc1Cl"
target_desc = "SK-OV-3"
qualitative_label = "class 0"

[[record]]
molecule = "O=C1NC(=O)C(C(=O)C(=O)Nc2ccc(Cl)cc2Cl)C(=O)N1"
target_desc = "SK-OV-3"
qualitative_label = "class 0"

[[record]]
molecule = "O=C1c2ccccc2-c2[nH]c3cn[nH]c(=O)c3c21"
target_desc = "SK-OV-3"
qualitative_label = "class 0"

[[record]]
molecule = "COc1cccc2c1C(=O)c1c(O)c3c(c(O)c1C2=O)C[C@@](O)(C(C)=O)C[C@@H]3OC1CC(N(C)C)C(O)C(C)O1 (stereo partly specified)"
target_desc = "SK-OV-3"
qualitative_label = "class 1"

[[record]]
molecule = "CCOC(=O)N/N=C(/OCC)c1ccccc1"
target_desc = "SK-OV-3"
qualitative_label = "class 0"

[[record]]
molecule = "COc1ccc(NC(=S)c2ccc(CN3CCCCC3)s2)cc1"
target_desc = "SK-OV-3"
qualitative_label = "class 0"

[[record]]
molecule = "CC(C)(C)c1cc(O)ccc1O"
target_desc = "SK-OV-3"
qualitative_label = "class 0"

[[record]]
molecule = "CC(C)(C)N1CC1CNC(=O)C(=O)NCC1CN1C(C)(C)C (stereo unspecified)"
target_desc = "SK-OV-3"
qualitative_label = "class 0"

[[record]]
molecule = "CC1OC(OC2C(O)COC(OC3C(C)OC(OC4C(OC(=O)[C@]56CCC(C)(C)C[C@@H]5C5=CCC7[C@@]8(C)C[C@H](O)[C@H](OC9OC(CO)C(O)C(OC%10OC(CO)C(O)C(O)C%10O)C9O)[C@@](C)(CO)[C@@H]8CC[C@@]7(C)[C@]5(C)CC6)OCC(O)C4O)C(O)C3OC3OCC(O)C(O)C3O)C2O)C(O)C(O)C1O (stereo partly specified)"
target_desc = "SK-OV-3"
qualitative_label = "class 0"

[[record]]
molecule = "C#CCSc1nc(-c2ccco2)n[nH]1"
target_desc = "SK-OV-3"
qualitative_label = "class 0"

[[record]]
molecule = "C=CCC(C(=O)OC)C1(C(=O)OC)c2[nH]c3ccccc3c2CCN1Cc1ccccc1 (stereo unspecified)"
target_desc = "SK-OV-3"
qualitative_label = "class 0"

[[record]]
molecule = "O=C(O)Cc1cc(Cl)ccc1O"
target_desc = "SK-OV-3"
qualitative_label = "class 0"

[[record]]
molecule = "OCCNC1c2cc(Cl)ccc2-c2c(Cl)cc(Cl)cc21 (stereo unspecified)"
target_desc = "SK-OV-3"
qualitative_label = "class 0"

[[record]]
molecule = "Cc1nc([N+](=O)[O-])cn1-c1nc2ccccn2c1[N+](=O)[O-]"
target_desc = "SK-OV-3"
qualitative_label = "class 0"

[[record]]
molecule = "CCc1cccc(C)c1NC(=O)CC(=O)NNC(N)=S"
target_desc = "SK-OV-3"
qualitative_label = "class 0"

[[record]]
molecule = "CC(C)CCNC(=O)c1ccc(CNC(=O)/C=C/c2cccc(Oc3ccccc3)c2)cc1"
target_desc = "SK-OV-3"
qualitative_label = "class 0"

[[record]]
molecule = "CN(C)c1ccc(/C=C2\\Oc3cc(O)ccc3C2=O)cc1"
target_desc = "SK-OV-3"
qualitative_label = "class 0"

[[record]]
molecule = "Cc1ccc(/N=N/c2ccc(N)cc2C)c(S(N)(=O)=O)c1"
target_desc = "SK-OV-3"
qualitative_label = "class 0"

[[record]]
molecule = "[O-][S+]1CSSC1"
target_desc = "SK-OV-3"
qualitative_label = "class 0"

[[record]]
molecule = "O=C1NC2(CCCC2)C2CCCCC12O (stereo unspecified)"
target_desc = "SK-OV-3"
qualitative_label = "class 0"

[[record]]
molecule = "COc1cc(Br)cc2cc(-c3cn4ccsc4n3)c(=O)oc12"
target_desc = "SK-OV-3"
qualitative_label = "class 0"

[[record]]
molecule = "CC(C)/C(Cl)=N\\OC(=O)Nc1ccc(F)cc1F"
target_desc = "SK-OV-3"
qualitative_label = "class 0"

[[record]]
molecule = "Cc1cc(C)c(C)c(-n2[nH]c(=O)n(C)c2=O)c1C"
target_desc = "SK-OV-3"
qualitative_label = "class 0"

[[record]]
molecule = "OC1CN2Cc3cc4c(cc3[C@]13C=C[C@@H](O)CC23)OCO4 (stereo partly specified)"
target_desc = "SK-OV-3"
qualitative_label = "class 0"

[[record]]
molecule = "CC(=O)N1C(c2[nH]c3ccccc3c2-c2ccccc2)CCN1c1ccccc1 (stereo unspecified)"
target_desc = "SK-OV-3"
qualitative_label = "class 0"

[[record]]
molecule = "O=C(/C=C(\\N=P(c1ccccc1)(c1ccccc1)c1ccccc1)C(F)(F)C(F)(F)C(F)(F)C(F)(F)C(F)(F)C(F)(F)C(F)(F)F)c1ccccc1"
target_desc = "SK-OV-3"
qualitative_label = "class 0"

[[record]]
molecule = "O=c1c2c(c1=O)C1(SCCCS1)c1cc(Cl)ccc1O2"
target_desc = "SK-OV-3"
qualitative_label = "class 0"

[[record]]
molecule = "CCC(=O)NC(Nc1cccc(F)c1C)(C(F)(F)F)C(F)(F)F"
target_desc = "SK-OV-3"
qualitative_label = "class 0"

[[record]]
molecule = "CC(C)(C)OC(=O)N1CC(COS(C)(=O)=O)c2ccc(O)cc21 (stereo unspecified)"
target_desc = "SK-OV-3"
qualitative_label = "class 0"

[[record]]
molecule = "CCCCCCCCCCCCCCCC(=O)Nc1ccn(C2CCC(COP(=O)(O)OCC3OC(n4cc(F)c(=O)[nH]c4=O)CC3OC(C)=O)O2)c(=O)n1 (stereo unspecified)"
target_desc = "SK-OV-3"
qualitative_label = "class 0"

[[record]]
molecule = "C=CC[C@H]1[C@H](O[Si](C)(C)C(C)(C)C)C=CC(=O)[C@@H]1CC(=O)OCC"
target_desc = "SK-OV-3"
qualitative_label = "class 0"

